Below, each entry is listed with its recorded Binding of serum 62 to linear peptides of protein M of SARS-CoV Urbani.
# Tested on: antibodies in sera from SARS patients (sera 1a, 1b, 2, 6, 37, 62, London, SARS-yellow, SARS-green)
# Format: binding, human
// no unit string in output, number only

**Q:** Could you share which Binding of serum 62 to linear peptides of protein M of SARS-CoV Urbani value was measured for `ESELVIGAVIIRGHL` ?
**A:** 0.8

**Q:** Which Binding of serum 62 to linear peptides of protein M of SARS-CoV Urbani is reported for this sequence? `VTLACFVLAAVYRIN`
**A:** 0.5

**Q:** I have this sequence here, `SQRVGTDSGFAAYNR` , and I need its recorded Binding of serum 62 to linear peptides of protein M of SARS-CoV Urbani.
**A:** 0.4

**Q:** Entry `LQFAYSNRNRFLYII` has what Binding of serum 62 to linear peptides of protein M of SARS-CoV Urbani?
**A:** 0.7

**Q:** If you can, please state the reported Binding of serum 62 to linear peptides of protein M of SARS-CoV Urbani value of `IAMACIVGLMWLSYF` .
**A:** 0.3

**Q:** Look up Binding of serum 62 to linear peptides of protein M of SARS-CoV Urbani: `VYRINWVTGGIAIAM`
**A:** 0.6

**Q:** Fill in the blank: the reported Binding of serum 62 to linear peptides of protein M of SARS-CoV Urbani of `RTRSMWSFNPETNIL` is ____.
**A:** 0.9

**Q:** Looking for the measured Binding of serum 62 to linear peptides of protein M of SARS-CoV Urbani of `SFRLFARTRSMWSFN` , can you help?
**A:** 0.7

**Q:** Look up Binding of serum 62 to linear peptides of protein M of SARS-CoV Urbani: `LMESELVIGAVIIRG`
**A:** 0.8

Further cases:
**Q:** Need Binding of serum 62 to linear peptides of protein M of SARS-CoV Urbani, item `LVIGFLFLAWIMLLQ`
**A:** 0.4

====

# System: antibodies in sera from SARS patients (sera 1a, 1b, 2, 6, 37, 62, London, SARS-yellow, SARS-green)
# Format: binding, human
# Set-up: unit not given here
quantity_kind: Binding of serum 2 to looped/cyclic peptides of protein N of SARS-CoV Urbani
Please respond with just the number, no unit label.

**Q:** Please give the measured Binding of serum 2 to looped/cyclic peptides of protein N of SARS-CoV Urbani for this sequence: `INTNSGPDDQIGYYR`
**A:** 0.4

**Q:** Can you share its Binding of serum 2 to looped/cyclic peptides of protein N of SARS-CoV Urbani? I mean this sequence: `TPSGTWLTYHGAIKL`
**A:** 0.4

**Q:** Given `FYYLGTGPEASLPYG` , state its recorded Binding of serum 2 to looped/cyclic peptides of protein N of SARS-CoV Urbani.
**A:** 0.4

**Q:** Which Binding of serum 2 to looped/cyclic peptides of protein N of SARS-CoV Urbani is listed for `GRRGPEQTQGNFGDQ` ?
**A:** 0.4

**Q:** Form field: reported Binding of serum 2 to looped/cyclic peptides of protein N of SARS-CoV Urbani of `ASLPYGANKEGIVWV`
**A:** 0.7

**Q:** What measured Binding of serum 2 to looped/cyclic peptides of protein N of SARS-CoV Urbani goes with `NGPQSNQRSAPRITF` ?
**A:** 0.5

**Q:** Query (sequence): `DEAQPLPQRQKKQPT` ; field requested: Binding of serum 2 to looped/cyclic peptides of protein N of SARS-CoV Urbani
**A:** 0.2

Query sequence follows.
**Q:** Can you share its Binding of serum 2 to looped/cyclic peptides of protein N of SARS-CoV Urbani? I mean this sequence: `VTQAFGRRGPEQTQG`
**A:** 0.2

====

# System: antibodies in sera from SARS patients (sera 1a, 1b, 2, 6, 37, 62, London, SARS-yellow, SARS-green)
# Format: binding, human
quantity_kind: Binding of serum 62 to linear peptides of protein X1 of SARS-CoV Urbani
Form: value (number only, do not type unit).

Recorded Binding of serum 62 to linear peptides of protein X1 of SARS-CoV Urbani, per entry:
**Q:** Give its Binding of serum 62 to linear peptides of protein X1 of SARS-CoV Urbani value. Item: `QLESTQITTDTGIEN`
**A:** 0.5

**Q:** Param item = `IPLQASLPFGWLVIG` ; retrieve measured Binding of serum 62 to linear peptides of protein X1 of SARS-CoV Urbani.
**A:** 0.6

**Q:** Look at this sequence and give its reported Binding of serum 62 to linear peptides of protein X1 of SARS-CoV Urbani. `QFICNLLLLFVTIYS`
**A:** 0.6

Further cases:
**Q:** Reported Binding of serum 62 to linear peptides of protein X1 of SARS-CoV Urbani for `SLPFGWLVIGVAFLA` : what is it?
**A:** 0.5

**Q:** Given the sequence `TQITTDTGIENATFF` , what is its reported Binding of serum 62 to linear peptides of protein X1 of SARS-CoV Urbani?
**A:** 0.5

**Q:** What does the record list as Binding of serum 62 to linear peptides of protein X1 of SARS-CoV Urbani for `LYALIYFLQCINACR` ?
**A:** 0.6

**Q:** For the sequence `CIPYNSVTDTIVVTE` , what Binding of serum 62 to linear peptides of protein X1 of SARS-CoV Urbani is on record?
**A:** 0.6

**Q:** Quick check: Binding of serum 62 to linear peptides of protein X1 of SARS-CoV Urbani of `WKCKSKNPLLYDANY` ?
**A:** 0.7

====

# System: antibodies in sera from SARS patients (sera 1a, 1b, 2, 6, 37, 62, London, SARS-yellow, SARS-green)
# Type: binding, human
# Parameters: unit not given here
Label 1 when Binding of serum 37 to looped/cyclic peptide (PEPSCAN-ELISA) < 0.6; otherwise 0.

**Q:** Identify whether the sequence `IGVAFLAVFQSATKI` records Binding of serum 37 to looped/cyclic peptide (PEPSCAN-ELISA) below 0.6.
**A:** 1

**Q:** Here's an entry: `IPLQASLPFGWLVIG` . Is its Binding of serum 37 to looped/cyclic peptide (PEPSCAN-ELISA) below 0.6?
**A:** 1

**Q:** Binding of serum 37 to looped/cyclic peptide (PEPSCAN-ELISA) strictly < 0.6 for this sequence? `TATIPLQASLPFGWL`
**A:** 0

***
**Q:** Given the entry `ASLPFGWLVIGVAFL` , would its reported Binding of serum 37 to looped/cyclic peptide (PEPSCAN-ELISA) be below 0.6?
**A:** 1

**Q:** In the record for `MRCWLCWKCKSKNPL` , is Binding of serum 37 to looped/cyclic peptide (PEPSCAN-ELISA) less than 0.6?
**A:** 1

**Q:** Confirm or reject: Binding of serum 37 to looped/cyclic peptide (PEPSCAN-ELISA) of `SATKIIALNKRWQLA` lies strictly below 0.6
**A:** 0

====

# Tested on: antibodies in sera from SARS patients (sera 1a, 1b, 2, 6, 37, 62, London, SARS-yellow, SARS-green)
# Type: binding, human
# Design: unit not given here
Entries and their Binding of serum 1b to looped/cyclic peptides of protein N of SARS-CoV Urbani values follow.
Note: the reply should be a number with no unit written.

**Q:** What Binding of serum 1b to looped/cyclic peptides of protein N of SARS-CoV Urbani value was documented for this sequence, `NGPQSNQRSAPRITF` ?
**A:** 0.2

Others:
**Q:** Recorded Binding of serum 1b to looped/cyclic peptides of protein N of SARS-CoV Urbani of `IRQGTDYKHWPQIAQ` , please.
**A:** 0.2

**Q:** What Binding of serum 1b to looped/cyclic peptides of protein N of SARS-CoV Urbani value was documented for this sequence, `SKVSGKGQQQQGQTV` ?
**A:** 0.2

**Q:** What value of measured Binding of serum 1b to looped/cyclic peptides of protein N of SARS-CoV Urbani is listed for `GGRNGARPKQRRPQG` ?
**A:** 0.1

**Q:** Item under review: `PQGLPNNTASWFTAL` . Reported Binding of serum 1b to looped/cyclic peptides of protein N of SARS-CoV Urbani?
**A:** 0.3

**Q:** Requested read-out: Binding of serum 1b to looped/cyclic peptides of protein N of SARS-CoV Urbani. Entry: `SGPDDQIGYYRRATR`
**A:** 0.3

**Q:** Return reported Binding of serum 1b to looped/cyclic peptides of protein N of SARS-CoV Urbani; argument: `SPRWYFYYLGTGPEA`
**A:** 0.3

**Q:** Look at this sequence and give its reported Binding of serum 1b to looped/cyclic peptides of protein N of SARS-CoV Urbani. `NSTPGSSRGNSPARM`
**A:** 0.7

**Q:** Give its Binding of serum 1b to looped/cyclic peptides of protein N of SARS-CoV Urbani value. Item: `TNSGPDDQIGYYRRA`
**A:** 0.4
